Target: T1, human CD73 on Calu6 cells (human, UniProt P21589 27-549)
T1 sequence (looked up): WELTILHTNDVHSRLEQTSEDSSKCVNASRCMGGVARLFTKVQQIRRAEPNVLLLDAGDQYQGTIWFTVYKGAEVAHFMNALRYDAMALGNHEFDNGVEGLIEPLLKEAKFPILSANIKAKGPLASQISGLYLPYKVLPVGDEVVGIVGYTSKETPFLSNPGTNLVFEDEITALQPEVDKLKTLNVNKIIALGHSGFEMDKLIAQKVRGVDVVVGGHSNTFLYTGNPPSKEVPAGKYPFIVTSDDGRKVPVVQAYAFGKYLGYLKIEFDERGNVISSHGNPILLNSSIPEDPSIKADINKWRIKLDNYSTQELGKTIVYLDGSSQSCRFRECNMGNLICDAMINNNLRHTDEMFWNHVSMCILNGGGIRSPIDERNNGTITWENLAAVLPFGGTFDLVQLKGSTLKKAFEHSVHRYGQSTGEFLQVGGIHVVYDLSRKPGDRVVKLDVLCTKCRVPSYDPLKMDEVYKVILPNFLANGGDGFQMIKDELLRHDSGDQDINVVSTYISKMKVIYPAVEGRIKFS
Test: cell-based or functional assay
Quantity Measured: CD73 endocytosis ratio %, 480 minutes

{"Binder": "CD73 antibody 7E10 (antibody, V domains shown, Mouse variable regions on human IgG heavy chain constant region and human kappa constant region (chimeric IgG); also called Clone 7E10) VH: QVQFQQSGAELVRPGASVKLSCKASGYIFSSYWIQWVKQRPGQGLEWIGAIYPGDGDTRYTQKFKDKATLTADKSSSTAYMQLSSLASEDSAVYYCAGFASWGQGTLVTVSA VL: DIQMTQSPSSLSASLGERVSLTCRASQDIGSSLNWLQQEPNGTIKRLIYATSSLDSGVPKRFSGSRSGSDYSLTISSLESEDFADYYCLQYASSPYTFGGGTKLEIK", "CD73 endocytosis ratio %, 480 minutes": "6.2%"}

Okay, next one:
Value of measured CD73 endocytosis ratio %, 480 minutes for the entry CD73 antibody 8A8 (antibody, V domains shown, Mouse variable regions on human IgG heavy chain constant region and human kappa constant region (chimeric IgG); also called Clone 8A8) VH: QVQFQQSGAELARPGASVKLSCKASGYIFTSYWIQWIKQRPGQGLEWIGAIYPGDGDTRYTQKFKGKATLTADKSSSTAYMQLRSLASEDSAVYYCAGFASWGQGTLLTVSA VL: DIQMTQSPSSLSASLGERVSLTCRASQDIGESLIWLQQEPDGTIKRLIYATSSLDSGVPKRFSGSRSGSDYSLSISSLESDDFVDYYCLQYSSSPYTFGGGTKLEIK : 40.5%
